Test system: OVCAR-8
procedure_text: NCI tumour cell line growth inhibition, 48 h
The source made the active and inactive calls. No stated cut-off is given here; in the data, active = GI50 up to about 1.1 µM and inactive = higher.
# GI50 annotations
assay_readout: GI50

>>> result("CSc1ccc(OCC2OC2O)cc1 (configuration not stated)")
"55.6 µM (inactive)"
>>> result("NC12c3c4cccc3Oc3cccc(c31)Oc1cccc(c12)O4")
"> 50 µM (inactive)"
>>> result("CC(C)c1cccc(C(C)C)c1NC(=O)C(=O)C1SC(=S)NC1=O (configuration not stated)")
"> 100 µM (inactive)"
>>> result("CC(=O)OC(C)c1cc2c(s1)C(=O)c1sccc1C2=O (configuration not stated)")
"1.81 µM (inactive)"
>>> result("O=C(OC1C#CCSCC#C/C=C\\1)c1ccc2c(c1)C(=O)c1ccccc1C2=O (configuration not stated)")
"68.5 µM (inactive)"
>>> result("CSCC[C@@H](NC(=O)[C@H](CC(C)C)NC(=O)C(Cc1cnc[nH]1)NC(=O)CNC(=O)[C@@H](NC(=O)[C@H](C)NC(=O)[C@H](Cc1c[nH]c2ccccc12)NC(=O)[C@H](CCC(N)=O)NC(=O)[C@@H](N)CC(N)=O)C(C)C)C(N)=O (some centres not stated)")
"> 100 µM (inactive)"
>>> result("N/C(=N\\Nc1cccc(Cl)c1)c1cccnc1")
"> 78.3 µM (inactive)"
>>> result("Cc1cc(Cl)ccc1NC(=O)/C(CC(=O)CC(c1ccccc1)c1c(O)c2ccccc2oc1=O)=N\\O (configuration not stated)")
"> 100 µM (inactive)"
>>> result("CCC(COC(=O)CC[C@@H](NC(=O)C(C)NC(=O)C(C)OC1C(O)C(CO)OC(OCc2ccccc2)C1NC(C)=O)C(N)=O)NC1c2ccccc2Nc2cccc([N+](=O)[O-])c21 (some centres not stated)")
"> 100 µM (inactive)"
>>> result("COC(=O)[C@H]1C=NN[C@@H]1C(=O)N1[C@H]2CC3CC[C@@]2(CS1(=O)=O)C3(C)C")
"> 100 µM (inactive)"
>>> result("CCCCCCCC(=O)OC[n+]1cccc(-c2c(COC(=O)NC(C)C)c(COC(=O)NC(C)C)c3n2CCC3)c1")
"82 µM (inactive)"
>>> result("Cc1ccc(/N=N/c2c(O)c(C(=O)O)cc3ccccc23)c(S(=O)(=O)O)c1")
"> 100 µM (inactive)"
